This collection of values is drawn from paper PMC5929572.

Entries and their measured pEC50 follow.
Tested on: DENV-2
Test: Titer reduction assay in Huh-7 cells, plaque assay on Vero cells
Assay type: cell-based, DENV-2 New Guinea C strain
Details: Dengue virus, DENV2, m.o.i. 0.2, 72 h
Procedure: Huh-7 cells were seeded in 12-well plates at a density of 4×10^5 cells per well in 1 mL culture medium. The next day, cells were washed and inoculated with DENV at a multiplicity of infection (m.o.i.) of 0.2 in 500μl infection medium (MEM containing 2% FBS and 10 mM HEPES). […] Viral titers were determined using a plaque assay on Vero cells. […] Infectious virus titer (pfu/mL) was determined using the following formula: number of plaques × dilution factor × (1/inoculation volume). […]
pEC50: −log10 of the molar value.
result-type: pEC50

* NC(=O)c1nccn([C@@H]2O[C@H](CO)[C@@H](O)[C@H]2O)c1=O | 4.22
* NC(=O)c1nccnc1O [Compound 3a, 3-Hydroxy-2-pyrazinecarboxamide] | 4.70
